Assay: qHTS for Inhibitors of Inflammasome Signaling: IL-1-beta AlphaLISA Primary Screen; note: % is set by controls: 0 for no effect and ±100 for the full control effect
Conditions: THP-1 LPS/ATP IL-1B secretion, 16 h; at 57.5 µM
Out of some 360,000 compounds screened, about 17,000 (4.7%) were called active. Roughly 5% stayed inconclusive and do not appear here. Cut-off read from the data, not from the text of the source: active = activity change below about -50%; inconclusive = mostly about -30% to -49%; inactive = weaker than that. This is one part of a sample in which actives are shown more often than they occur.
Mark one answer only. Choices: t = active, f = inactive

Query :: Per the records of this test, what outcome belongs to C[C@@H]1CN([C@H](C)CO)C(=O)CCCn2nncc2CO[C@@H]1CN(C)S(=O)(=O)c1cccc(C#N)c1 ?
Result :: f

Query :: Per the records of this test, what outcome belongs to CCCOc1ccc(C(=O)C(CCC(CNCC)C(=O)c2ccc(OCCC)cc2)CNCC)cc1 (configuration not stated) ?
Result :: t

Query :: Per the records of this test, what outcome belongs to OC[C@@H]1CN(C2CCCC2)C[C@H](n2cnc3c(NC4CCC4)ncnc32)O1 ?
Result :: f

Query :: Per the records of this test, what outcome belongs to COc1ccc(C(=O)OCC(=O)Nc2cc(C)on2)cc1F ?
Result :: f

Query :: Per the records of this test, what outcome belongs to CCc1nc2c(OCCOc3ccccc3)cccn2c1N(C)C(=O)c1ccccc1F ?
Result :: f

Query :: Per the records of this test, what outcome belongs to CCCOc1ccc(NC(=O)C2CCCNC2=O)cc1 (configuration not stated) ?
Result :: f

Query :: Per the records of this test, what outcome belongs to O=C(Nc1ccccc1)c1ccccc1Br ?
Result :: f

Query :: Per the records of this test, what outcome belongs to COc1cccc(/C=C/c2ccc3ccccc3n2)c1OC(C)=O ?
Result :: t

Query :: Per the records of this test, what outcome belongs to C[N+](C)(C)CCNC(=O)c1c[nH]c2ccccc12 ?
Result :: f

Query :: Per the records of this test, what outcome belongs to CCOc1cccc(/C=C/c2ccc3ccccc3n2)c1OC(C)=O ?
Result :: t

---

Consider the following molecules and their measured activity change readings.
Assay: qHTS for Inhibitors of Inflammasome Signaling: IL-1-beta AlphaLISA Primary Screen
Details: THP-1 LPS/ATP IL-1B secretion, 16 h; at 57.5 µM, active compounds read low
About 17,000 (4.7%) of roughly 360,000 compounds were called active. Inconclusive results (about 5%) are left out. The list comes from a sample in which actives are over-represented; it also holds close analogues and randomly drawn compounds.
Could you give me the number in %? Just the number is fine.

{"molecule": "COc1ccc(-n2cc(CN(C)Cc3n[nH]c(=O)[nH]3)c(-c3cccc(F)c3)n2)cc1", "experimental_readout": "activity change", "readout_units": "%", "measured_value": -3.96}
{"molecule": "NC(=O)C1CCN(C(=O)CC2C(=O)NCCN2Cc2cccc(Oc3ccccc3)c2)CC1 (stereo not given)", "experimental_readout": "activity change", "readout_units": "%", "measured_value": -6.56}

Query :: Name the recorded activity change of the molecule listed here: OCc1ccc(OCCCOc2cccc3cccnc23)cc1
Result :: -1.1

Query :: Name the recorded activity change of the molecule listed here: CN(C)c1ccc(Nc2c3c4c(cccc4n(C)c2=O)C(=O)c2ccccc2-3)cc1
Result :: -11.1

Query :: Name the recorded activity change of the molecule listed here: NC(=O)C1CCN(C(=O)COc2cccc3cccnc23)CC1
Result :: 0.882
